List of IC50 values.
- System: MDA-MB-231
- Method notes: Growth inhibition of human MDA-MB-231 cells after 24 hrs by MTT assay
- Format: functional, cell-based
- Condition description: MDA-MB-231, 24 h
Quantity name: IC50 (µM)

[[record]]
structure_as_smiles = "COc1ccc2oc3cc(OCCCCO[N+](=O)[O-])cc(O)c3c(=O)c2c1"
quantity_name = "IC50"
operator_symbol = "="
val = 22.3

[[record]]
structure_as_smiles = "COc1cccc2oc3cc(OCCCCCO)cc(O)c3c(=O)c12"
quantity_name = "IC50"
operator_symbol = "="
val = 41.1

[[record]]
structure_as_smiles = "COc1cccc2oc3cc(OCCCCCO[N+](=O)[O-])cc(O)c3c(=O)c12"
quantity_name = "IC50"
operator_symbol = "="
val = 0.57

[[record]]
structure_as_smiles = "O=c1c2cc(Br)ccc2oc2cc(OCCCCCO[N+](=O)[O-])cc(O)c12"
quantity_name = "IC50"
operator_symbol = "="
val = 11.1

[[record]]
structure_as_smiles = "O=c1c2ccccc2oc2cc(OCCCCCO[N+](=O)[O-])cc(O)c12"
quantity_name = "IC50"
operator_symbol = "="
val = 40.7

[[record]]
structure_as_smiles = "COc1cccc2oc3cc(OCCCCCCO[N+](=O)[O-])cc(O)c3c(=O)c12"
quantity_name = "IC50"
operator_symbol = "="
val = 0.45

[[record]]
structure_as_smiles = "COc1cc2oc3cc(O)cc(O)c3c(=O)c2cc1OC"
quantity_name = "IC50"
operator_symbol = ">"
val = 200

[[record]]
structure_as_smiles = "O=c1c2cc(Cl)ccc2oc2cc(OCCO[N+](=O)[O-])cc(O)c12"
quantity_name = "IC50"
operator_symbol = "="
val = 33.3

[[record]]
structure_as_smiles = "O=c1c2cc(Cl)ccc2oc2cc(OCCCCCCO[N+](=O)[O-])cc(O)c12"
quantity_name = "IC50"
operator_symbol = "="
val = 9.74

[[record]]
structure_as_smiles = "Cc1ccc2c(=O)c3c(O)cc(OCCCCO[N+](=O)[O-])cc3oc2c1"
quantity_name = "IC50"
operator_symbol = "="
val = 62.9

[[record]]
structure_as_smiles = "O=c1c2cc(Cl)ccc2oc2cc(OCCCCO[N+](=O)[O-])cc(O)c12"
quantity_name = "IC50"
operator_symbol = "="
val = 11.2

[[record]]
structure_as_smiles = "O=c1c2ccc(O)cc2oc2cc(OCCCCCCO[N+](=O)[O-])cc(O)c12"
quantity_name = "IC50"
operator_symbol = "="
val = 10.6

[[record]]
structure_as_smiles = "COc1cccc2oc3cc(OCCCCCCCO[N+](=O)[O-])cc(O)c3c(=O)c12"
quantity_name = "IC50"
operator_symbol = "="
val = 4.29

[[record]]
structure_as_smiles = "COc1cc2oc3cc(OCCCCO[N+](=O)[O-])cc(O)c3c(=O)c2cc1OC"
quantity_name = "IC50"
operator_symbol = "="
val = 87.4

[[record]]
structure_as_smiles = "O=c1c2cc(Br)ccc2oc2cc(OCCCCO[N+](=O)[O-])cc(O)c12"
quantity_name = "IC50"
operator_symbol = "="
val = 11.2

[[record]]
structure_as_smiles = "O=c1c2ccccc2oc2cc(OCCCCCCCO[N+](=O)[O-])cc(O)c12"
quantity_name = "IC50"
operator_symbol = "="
val = 43.5

[[record]]
structure_as_smiles = "COc1ccc2oc3cc(OCCCO[N+](=O)[O-])cc(O)c3c(=O)c2c1"
quantity_name = "IC50"
operator_symbol = "="
val = 35.6

[[record]]
structure_as_smiles = "O=c1c2ccc(O)cc2oc2cc(OCCCO[N+](=O)[O-])cc(O)c12"
quantity_name = "IC50"
operator_symbol = "="
val = 82.7

[[record]]
structure_as_smiles = "COc1ccc2oc3cc(OCCCCCCCO[N+](=O)[O-])cc(O)c3c(=O)c2c1"
quantity_name = "IC50"
operator_symbol = "="
val = 16.2

[[record]]
structure_as_smiles = "COc1ccc2oc3cc(OCCCCCCO[N+](=O)[O-])cc(O)c3c(=O)c2c1"
quantity_name = "IC50"
operator_symbol = "="
val = 3.05

[[record]]
structure_as_smiles = "COc1cc2oc3cc(OCCCCCCO[N+](=O)[O-])cc(O)c3c(=O)c2cc1OC"
quantity_name = "IC50"
operator_symbol = "="
val = 19.8

[[record]]
structure_as_smiles = "O=c1c2ccc(O)cc2oc2cc(OCCO[N+](=O)[O-])cc(O)c12"
quantity_name = "IC50"
operator_symbol = "="
val = 108

[[record]]
structure_as_smiles = "COc1ccc2oc3cc(O)cc(O)c3c(=O)c2c1"
quantity_name = "IC50"
operator_symbol = ">"
val = 200

[[record]]
structure_as_smiles = "O=c1c2cc(Br)ccc2oc2cc(OCCCO[N+](=O)[O-])cc(O)c12"
quantity_name = "IC50"
operator_symbol = "="
val = 43.6

[[record]]
structure_as_smiles = "O=[N+]([O-])OCCCCCO"
quantity_name = "IC50"
operator_symbol = "="
val = 140

[[record]]
structure_as_smiles = "O=c1c2ccc(O)cc2oc2cc(O)cc(O)c12"
quantity_name = "IC50"
operator_symbol = ">"
val = 200

[[record]]
structure_as_smiles = "O=c1c2ccccc2oc2cc(OCCCO[N+](=O)[O-])cc(O)c12"
quantity_name = "IC50"
operator_symbol = "="
val = 83.9

[[record]]
structure_as_smiles = "Cc1ccc2c(=O)c3c(O)cc(OCCCO[N+](=O)[O-])cc3oc2c1"
quantity_name = "IC50"
operator_symbol = "="
val = 78.4

[[record]]
structure_as_smiles = "COc1cc2oc3cc(OCCCCCO[N+](=O)[O-])cc(O)c3c(=O)c2cc1OC"
quantity_name = "IC50"
operator_symbol = "="
val = 45.6

[[record]]
structure_as_smiles = "O=c1c2cc(Cl)ccc2oc2cc(OCCCCCO[N+](=O)[O-])cc(O)c12"
quantity_name = "IC50"
operator_symbol = "="
val = 7.79

[[record]]
structure_as_smiles = "COc1cccc2oc3cc(OCCCCO[N+](=O)[O-])cc(O)c3c(=O)c12"
quantity_name = "IC50"
operator_symbol = "="
val = 6.25

[[record]]
structure_as_smiles = "O=c1c2cc(Br)ccc2oc2cc(OCCCCCCCO[N+](=O)[O-])cc(O)c12"
quantity_name = "IC50"
operator_symbol = "="
val = 9.27

[[record]]
structure_as_smiles = "COc1cccc2oc3cc(OCCCO[N+](=O)[O-])cc(O)c3c(=O)c12"
quantity_name = "IC50"
operator_symbol = "="
val = 9.68

[[record]]
structure_as_smiles = "Cc1ccc2c(=O)c3c(O)cc(OCCCCCCCO[N+](=O)[O-])cc3oc2c1"
quantity_name = "IC50"
operator_symbol = "="
val = 55.9

[[record]]
structure_as_smiles = "O=c1c2cc(O)ccc2oc2cc(OCCCO[N+](=O)[O-])cc(O)c12"
quantity_name = "IC50"
operator_symbol = "="
val = 134

[[record]]
structure_as_smiles = "O=c1c2cc(Br)ccc2oc2cc(OCCCCCCO[N+](=O)[O-])cc(O)c12"
quantity_name = "IC50"
operator_symbol = "="
val = 15

[[record]]
structure_as_smiles = "O=c1c2cc(O)ccc2oc2cc(OCCCCCCCO[N+](=O)[O-])cc(O)c12"
quantity_name = "IC50"
operator_symbol = "="
val = 74.3

[[record]]
structure_as_smiles = "O=c1c2cc(Cl)ccc2oc2cc(OCCCCCCCO[N+](=O)[O-])cc(O)c12"
quantity_name = "IC50"
operator_symbol = "="
val = 10.2

[[record]]
structure_as_smiles = "O=c1c2cc(O)ccc2oc2cc(OCCCCCCO[N+](=O)[O-])cc(O)c12"
quantity_name = "IC50"
operator_symbol = "="
val = 18.5

[[record]]
structure_as_smiles = "O=c1c2cc(Cl)ccc2oc2cc(OCCCO[N+](=O)[O-])cc(O)c12"
quantity_name = "IC50"
operator_symbol = "="
val = 27.8

[[record]]
structure_as_smiles = "Cc1ccc2c(=O)c3c(O)cc(OCCCCCCO[N+](=O)[O-])cc3oc2c1"
quantity_name = "IC50"
operator_symbol = "="
val = 10.3

[[record]]
structure_as_smiles = "COc1cc2oc3cc(OCCO[N+](=O)[O-])cc(O)c3c(=O)c2cc1OC"
quantity_name = "IC50"
operator_symbol = "="
val = 130

[[record]]
structure_as_smiles = "O=c1c2ccc(O)cc2oc2cc(OCCCCO[N+](=O)[O-])cc(O)c12"
quantity_name = "IC50"
operator_symbol = "="
val = 66.7

